assay: Antioxidant activity assessed as reducing power of ferric ion at 100 ug/ml after 20 mins; assay type: functional; set-up: scale not given: the % may be the effect or the level left
Threshold 70%: Activity strictly smaller gives TRUE, otherwise FALSE.

Use the examples below as a reference point.
[
  {
    "compound": "N/C(=N\\O)C1CC(c2ccc(O)cc2)=NN1c1ccccc1 (stereo not given)",
    "assignedCategory": "FALSE"
  },
  {
    "compound": "COc1ccc(C2=NN(c3ccccc3)C(c3noc(-c4ccccc4)n3)C2)cc1 (stereo not given)",
    "assignedCategory": "TRUE"
  },
  {
    "compound": "Clc1ccc(C2=NN(c3ccccc3)C(c3noc(-c4ccc(Cl)cc4)n3)C2)cc1 (stereo not given)",
    "assignedCategory": "FALSE"
  },
  {
    "compound": "COc1ccc(-c2nc(C3CC(c4ccc(Cl)cc4)=NN3c3ccccc3)no2)cc1OC (stereo not given)",
    "assignedCategory": "FALSE"
  }
]

Now consider a different compound.
-- ask Threshold test, Activity < 70%: COc1cc(-c2nc(C3CC(c4ccc(O)cc4)=NN3c3ccccc3)no2)cc(OC)c1OC (stereo not given)
-- reply FALSE
